I'd be grateful if you could share measured MIC E. coli BL21 for these entries.
test system: E. coli BL21; assay: MIC against Gram-negative bacteria: E. coli BL21; assay type: cell-based; conditions: 96-well plate, 5×10^5 CFU/mL, 37° C., 10 h
Answers are plain numbers, in µg/mL.

PRT634 (DIDECQHRHLCAHGQCRNTEGSFQCVCDQGYRASGLGDHCE; listed as Homo sapiens)    25
PRT709 (SCQLCDGYCYNGGTCQLDPETNVPVCLCSTNWSGTQCE; listed as Homo sapiens)    12.5
PRT671 (RVVVCPLPCMNGGQCSSRNQCLCPPDFTGRFCQ; listed as Homo sapiens)    12.5
PRT735 (GEENCNVNNGGCAQKCQMVRGAVQCTCHTGYRLTEDGHTCQ; listed as Homo sapiens)    50
PRT641 (QAEECGILNGCENGRCVRVQEGYTCDCFDGYHLDTAK; listed as Homo sapiens)    25

Below is a list of substances. For each, state its recorded MIC E. coli BL21.
1. PRT740 (GLNDCMHNNGQCGQLCLAIPGGHRCGCASHYTLDPSSRNCS; listed as Homo sapiens)
2. PRT692 (DVDECATGGRCQHGECANTRGGYTCVCPDGFLLDSSRSSCI; listed as Homo sapiens)
3. PRT612 (CPCPGGSSCAVVPKTKEVVCTNCPTGTTGKRCELCDDGYFGDPLGRNGPVRLCRL; listed as Homo sapiens)
4. PRT724 (DINECEQFGTCPQHCRNTKGSYECVCADGFTSMSDRPGKRCA; listed as Homo sapiens)
5. PRT663 (DVNECDDLNGPAVLCVHGYCENTEGSYRCHCSPGYVAEAGPPHCT; listed as Homo sapiens)
6. PRT642 (DVNECDELNNRMSLCKNAKCINTDGSYKCLCLPGYVPSDKPNYCT; listed as Homo sapiens)
7. PRT726 (LPPPCRCMHGGNCYFDETDLPKCKCPSGYTGKYCE; listed as Homo sapiens)
8. PRT674 (DVDECQDPAACRPGRCVNLPGSYRCECRPPWVPGPSGRDCQ; listed as Homo sapiens)

Reply:
1. 12.5
2. 25
3. 12.5
4. 12.5
5. 25
6. 50
7. 50
8. 25

Below is a list of substances. For each, state its recorded MIC E. coli BL21.
1. PRT648 (DIDECLNPSTCPDEQCVNSPGSYQCVPCTEGFRGWNGQCL; listed as Homo sapiens)
2. PRT712 (GSNSCQLNNGGCSQLCLPTSETTRTCMCTVGYYLQKNRMSCQ; listed as Homo sapiens)
3. PRT699 (DVDECSSGAPPCGPHGHCTNTEGSFRCSCAPGYRAPSGRPGPCA; listed as Homo sapiens)

Reply:
25
12.5
25

Values from patent US9833497B2
